We begin with a simple list: items and their reported switch fluorescence ratio.
- Test system: ATP;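 further: ATP exposure 15 min at 22 °C before imaging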
- RUN DESCRIPTION: switch fluorescence ratio, 500 uM ATP over buffer (Cy3 cluster intensity, sum of 5 cycles each) (fold (ratio)); higher = stronger signal-on switching upon ATP binding; sequences stand for … in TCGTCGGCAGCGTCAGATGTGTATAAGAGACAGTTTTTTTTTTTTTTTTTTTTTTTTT…TC
- ASSAY SETUP: aptamer strand: ATP DNA aptamer (quencher-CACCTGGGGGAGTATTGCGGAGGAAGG + anchor), 100 nM annealed; ATP concentration: 500 uM
MEASURED QUANTITY: switch fluorescence ratio

1) ACTGAGGCCT    1.05
2) GAGACTTAGA    1.01
3) TAGCATTCAT    0.994
4) TCTCAATGCG    1.02
5) AGGTGTAAGG    1.01
6) ATCTGTGGGG    0.996
7) GATAGTATGC    0.961
8) TTACGGCCTT    1.06
9) ATTGGGTTTC    0.982
10) ATATACATGG    1.01
